Data provenance: patent US20220274938A1

# Tested System: CIC-1 ion channel (Rattus norvegicus)
# Construct: CIC-1 channels in native tissue of rat skeletal muscle fibres
# Sequence (P35524 whole entry): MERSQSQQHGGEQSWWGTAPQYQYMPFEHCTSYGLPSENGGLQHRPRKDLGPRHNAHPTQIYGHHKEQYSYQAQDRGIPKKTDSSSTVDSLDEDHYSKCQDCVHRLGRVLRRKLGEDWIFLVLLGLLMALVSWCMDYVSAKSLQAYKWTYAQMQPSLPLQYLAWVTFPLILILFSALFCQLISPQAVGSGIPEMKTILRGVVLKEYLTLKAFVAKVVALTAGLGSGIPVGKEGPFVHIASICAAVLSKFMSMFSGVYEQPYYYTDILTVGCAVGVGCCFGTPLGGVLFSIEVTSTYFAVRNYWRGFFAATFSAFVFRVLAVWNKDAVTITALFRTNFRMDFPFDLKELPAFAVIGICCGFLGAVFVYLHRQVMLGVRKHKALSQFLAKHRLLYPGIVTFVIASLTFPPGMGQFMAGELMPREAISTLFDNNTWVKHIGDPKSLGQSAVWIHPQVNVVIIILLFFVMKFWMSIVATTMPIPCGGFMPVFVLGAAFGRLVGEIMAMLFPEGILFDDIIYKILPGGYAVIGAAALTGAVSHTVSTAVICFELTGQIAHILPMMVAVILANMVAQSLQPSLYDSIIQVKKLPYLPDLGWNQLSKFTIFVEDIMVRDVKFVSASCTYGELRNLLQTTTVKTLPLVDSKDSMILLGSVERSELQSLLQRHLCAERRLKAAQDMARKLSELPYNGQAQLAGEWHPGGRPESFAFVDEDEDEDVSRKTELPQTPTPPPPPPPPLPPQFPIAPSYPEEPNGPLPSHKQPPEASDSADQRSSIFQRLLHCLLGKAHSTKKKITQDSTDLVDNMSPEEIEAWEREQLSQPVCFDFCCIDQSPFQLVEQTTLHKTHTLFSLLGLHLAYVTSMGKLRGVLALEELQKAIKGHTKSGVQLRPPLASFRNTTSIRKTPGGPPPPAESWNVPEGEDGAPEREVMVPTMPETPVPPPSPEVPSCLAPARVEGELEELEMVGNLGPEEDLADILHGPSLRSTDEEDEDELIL
# Protocol Summary: Electrophysiological measurement (Gm, three micro-electrodes) of compound inhibition of CIC-1 in rat soleus muscle fibres
# Stated Conditions: approx. 30° C., four increasing compound concentrations, read-out: EC50 (inhibition of CIC-1 ion channel, reduction of Gm)
So basically, the class depends on measured EC50, and the ranges are category 1 = under 3 µM, category 2 = from 3 µM up to 8 µM, category 3 = 8 µM and over

CONC(=O)[C@H](C)Oc1ccc(Br)cc1F	category 2
CCCONC(=O)[C@H](C)Oc1ccc(Cl)cc1	category 2
C[C@H](Oc1ccc(Cl)cc1)C(=O)NOCC1CC1	category 2

Hey, which category is C[C@H](Oc1ccc(Cl)cc1)c1nnn[nH]1 in, do you know?
category 3

# bin label for C/C(=N\O)NC(=O)[C@@H](Oc1ccc(Br)cc1F)C(C)C
category 1

Into which bin does this compound go? C[C@H](Oc1ccc(Cl)cc1)C(=O)NOC1CCC1
category 1

Hey, which category is CONC(=O)[C@H](C)Oc1ccc(Cl)cc1 in, do you know?
category 3

Class (by measured EC50) for CC(=NO)NC(=O)[C@H](C)Oc1ccc(Br)cc1
category 1

Category of C[C@H](Oc1ccc(Br)cc1F)c1nn[nH]n1 :
category 2

Class (by measured EC50) for CCONC(=O)[C@H](C)Oc1ccc(Cl)cc1
category 3

Determine which band this compound sits in: C[C@H](Oc1ccc(Cl)cc1)C(=O)NOC1CCCC1
category 2

Which category fits this record: CC(C)[C@H](Oc1ccc(Br)cc1)C(=O)NC#N
category 3
